Reported values of log10 of IC50 for individual entries
Experiment: Inhibition of Escherichia coli DdlB assessed as residual activity of the enzyme assessed as orthophosphate formation after 20 mins by malachite green reagent method
EXPERIMENTAL READOUT: log10 of IC50 (log10 of the value in µM)

# SMILES ENTRY, log10 of IC50
data = [
    ("CCN(CC)Cc1cc2[nH]c3c4ccc(Cl)cc4ncc3c2cc1OC.Cl.Cl.Cl", 2.52),
    ("COc1ccc2c(c1)c1c(C)c3cnccc3c(C)c1n2CCCN", 1.85),
    ("Cc1c2cc[n+](C)cc2c(C)c2c1[nH]c1ccccc12.[I-]", 1.66),
    ("CCN(CC)Cc1cc2[nH]c3c4ccc(Cl)cc4ncc3c2cc1OC", 2.79),
    ("CCc1cccc2c1[nH]c1c(C)c3ccncc3c(C)c12", 2.10),
    ("CC(=O)[O-].COc1ccc2[nH]c3c(C)c4cc[n+](C)cc4c(C)c3c2c1", 1.95),
    ("CCN(CC)Cc1cc(Nc2c3ccc(Cl)cc3nc3c(OC)ccc(Cl)c23)ccc1O", 2.08),
    ("Cc1c2cnccc2c(C)c2c1c1ccc(F)cc1n2C", 1.95),
    ("Cc1c2cc[n+](C)cc2c(C)c2c1[nH]c1cc(F)ccc12.[I-]", 1.81),
    ("Cc1c2ccncc2c(C)c2c1[nH]c1ccc(Br)cc12", 1.93),
    ("Cc1c2c[n+](C)ccc2c(C)c2c1c1cc(Br)ccc1n2C.[I-]", 1.56),
]
